Biological target: STAT3 (Homo sapiens, UniProt P40763)
Sequence (P40763 whole entry, species assumed, the tested form may be a part): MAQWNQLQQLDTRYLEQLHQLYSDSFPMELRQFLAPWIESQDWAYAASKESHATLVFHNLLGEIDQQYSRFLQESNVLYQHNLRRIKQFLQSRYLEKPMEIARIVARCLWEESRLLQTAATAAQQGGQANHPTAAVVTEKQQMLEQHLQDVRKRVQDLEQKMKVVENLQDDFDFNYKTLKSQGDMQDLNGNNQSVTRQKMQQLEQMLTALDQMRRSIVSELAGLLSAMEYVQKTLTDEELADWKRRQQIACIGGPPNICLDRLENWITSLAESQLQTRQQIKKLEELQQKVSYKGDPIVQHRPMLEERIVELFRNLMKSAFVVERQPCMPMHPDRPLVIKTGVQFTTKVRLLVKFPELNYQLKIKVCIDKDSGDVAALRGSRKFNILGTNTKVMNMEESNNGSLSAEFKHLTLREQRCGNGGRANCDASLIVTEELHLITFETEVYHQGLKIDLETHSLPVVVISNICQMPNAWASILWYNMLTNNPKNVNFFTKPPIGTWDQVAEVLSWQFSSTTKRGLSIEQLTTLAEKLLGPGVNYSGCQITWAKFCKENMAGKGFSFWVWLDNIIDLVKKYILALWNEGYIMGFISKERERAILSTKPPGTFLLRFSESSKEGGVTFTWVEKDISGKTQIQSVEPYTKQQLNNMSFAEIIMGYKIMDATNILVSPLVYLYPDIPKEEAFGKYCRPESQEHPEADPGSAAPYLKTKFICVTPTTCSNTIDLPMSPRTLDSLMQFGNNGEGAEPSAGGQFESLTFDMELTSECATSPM
Assay: Competitive fluorescence polarization (FP) assay, STAT3 SH2 domain
Format: binding
Conditions: mean ± SD, n = 3
Flag rule - IC50 less than 10 µM flags MET; the remaining entries get NOT MET.

Please state whether IC50 is below 10 µM for O=P(O)(O)Oc1ccc(-c2ccccc2)cc1 [Compound 1, para‐biphenyl phosphate]
NOT MET

Please state whether IC50 is below 10 µM for Cc1cc(-c2ccc(C(F)(F)P(=O)(O)O)c(F)c2)cs1 [Compound 8k]
NOT MET

Please state whether IC50 is below 10 µM for O=P(O)(O)Oc1ccc(-c2ccc3ccccc3c2)cc1 [Compound 6g]
NOT MET

Please state whether IC50 is below 10 µM for O=P(O)(O)Oc1ccc(-c2ccccc2)cc1F [Compound 6h]
MET

Please state whether IC50 is below 10 µM for O=P(O)(O)C(F)(F)c1ccc(-c2ccc3ccccc3c2)cc1F [Compound 8a]
NOT MET

---

Target: STAT4 (Homo sapiens)
Sequence (Q14765 whole entry, the tested form may be a part): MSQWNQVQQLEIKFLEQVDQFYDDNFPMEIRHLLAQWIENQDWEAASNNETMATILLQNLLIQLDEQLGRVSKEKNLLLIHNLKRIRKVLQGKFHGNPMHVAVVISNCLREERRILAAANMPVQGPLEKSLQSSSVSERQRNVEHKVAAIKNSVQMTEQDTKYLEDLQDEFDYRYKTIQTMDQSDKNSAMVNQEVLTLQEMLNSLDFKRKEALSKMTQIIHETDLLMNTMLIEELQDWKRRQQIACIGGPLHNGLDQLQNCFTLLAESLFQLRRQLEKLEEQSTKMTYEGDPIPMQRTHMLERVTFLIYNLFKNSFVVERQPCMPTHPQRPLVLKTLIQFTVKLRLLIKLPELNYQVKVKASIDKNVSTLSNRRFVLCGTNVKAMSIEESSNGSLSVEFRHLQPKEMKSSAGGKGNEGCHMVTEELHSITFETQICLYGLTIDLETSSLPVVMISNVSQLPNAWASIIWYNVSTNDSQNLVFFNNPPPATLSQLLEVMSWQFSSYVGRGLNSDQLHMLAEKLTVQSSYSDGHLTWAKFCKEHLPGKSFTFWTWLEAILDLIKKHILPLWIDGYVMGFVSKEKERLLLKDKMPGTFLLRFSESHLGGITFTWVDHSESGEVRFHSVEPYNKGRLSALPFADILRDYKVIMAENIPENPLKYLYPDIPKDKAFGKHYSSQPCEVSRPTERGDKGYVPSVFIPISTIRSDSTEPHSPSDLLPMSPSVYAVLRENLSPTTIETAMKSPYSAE
Experiment: Competitive fluorescence polarization (FP) assay, STAT4 SH2 domain
Assay type: binding
Conditions: FP assay; mean ± SD, n = 3
For each of the compounds below, state its IC50.
Reply numerically in µM, unit not repeated.

Tell us which IC50 value is on record for N#Cc1ccccc1-c1ccc(OP(=O)(O)O)cc1
5.2

Tell us which IC50 value is on record for O=P(O)(O)Oc1ccc(-c2ccccc2)cc1F
1.2

Tell us which IC50 value is on record for O=P(O)(O)Oc1ccc(-c2ccccc2)c(F)c1
8.1

Tell us which IC50 value is on record for CC(=O)c1cc(-c2ccc(C(F)(F)P(=O)(O)O)c(F)c2)cs1
15

Tell us which IC50 value is on record for O=P(O)(O)C(F)(F)c1ccc(-c2ccc3ccccc3c2)cc1F
8.5

Tell us which IC50 value is on record for O=C(O)c1ccccc1-c1ccc(OP(=O)(O)O)cc1
17

Tell us which IC50 value is on record for COc1cc(OC)cc(-c2ccc(OP(=O)(O)O)cc2)c1
3.9

Tell us which IC50 value is on record for Cc1cc(-c2ccc(C(F)(F)P(=O)(O)O)c(F)c2)cs1
3.7

Tell us which IC50 value is on record for O=P(O)(O)C(F)(F)c1ccc(-c2ccsc2)cc1F
6

Tell us which IC50 value is on record for COc1cc(-c2ccccc2)ccc1OP(=O)(O)O
47

Tell us which IC50 value is on record for O=P(O)(O)C(F)(F)c1ccc(-c2ccoc2)cc1F
83

Tell us which IC50 value is on record for CC(=O)NCc1ccccc1-c1ccc(OP(=O)(O)O)cc1
12

Tell us which IC50 value is on record for O=P(O)(O)C(F)(F)c1ccc(-c2ccsc2Cl)cc1F
15

Tell us which IC50 value is on record for O=P(O)(O)C(F)(F)c1ccc(-c2cccs2)cc1F
7.7

Tell us which IC50 value is on record for O=P(O)(O)Oc1c(F)cc(-c2ccccc2)cc1F
4.3

Tell us which IC50 value is on record for O=P(O)(O)Oc1ccc(-c2ccc3ccccc3c2)cc1F
0.76

Tell us which IC50 value is on record for Cc1cscc1-c1ccc(C(F)(F)P(=O)(O)O)c(F)c1
19

Tell us which IC50 value is on record for O=P(O)(O)Oc1ccc(-c2cccc3ccccc23)cc1
1.8
